System: MCF7 breast
Test: NCI-60 one-dose screen, 48 h (100 = growth as untreated, 0 = no growth, -100 = all killed)
Conditions: 10 µM unless noted
This is part of a sample that, as a whole, favours compounds with a hit. Of some 83,000 tested, about 20% had one in any assay.
Consider the cut-off 10%. If the recorded growth is strictly smaller, the label is condition met; if not, the label is condition not met.

# Line Notation, Target Or System, Cat
rows = [
    ("COc1cc(-c2nc3ccc(-c4nnc(SCC(=O)Nc5ccc(C(C)=O)cc5)o4)cc3[nH]2)cc(OC)c1OC", "MCF7 breast", "condition not met"),
    ("NC(=O)c1c(NC(=O)c2ccc(C3CCCCC3)cc2)sc2c1CCC(=O)C2", "MCF7 breast", "condition not met"),
    ("CS(=O)(=O)c1ccc(-c2nc3ccccn3c2-c2nc3ccc([N+](=O)[O-])cc3[nH]2)cc1", "MCF7 breast", "condition not met"),
    ("Clc1ccc2oc3c(NCCCN4CCOCC4)c4ccccc4nc3c2c1", "MCF7 breast", "condition met"),
    ("CC(=O)Nc1cc(F)cc(-c2ccc3[nH]cc(-c4ccccc4)c3n2)c1", "MCF7 breast", "condition met"),
]

---

System: ACHN renal
Experiment: NCI-60 one-dose screen, 48 h
Conditions: 10 µM unless noted
About 83,000 compounds went through this panel and 20% of them were active in at least one assay; those are over-represented in the sample as a whole. Activity calls are given as the source filed them. How the source made its calls: active means growth percent below 10; inactive means the rest.
Outcome codes: active, inactive

# Molecule, Cat
measured = [
    ("O=c1[nH]c2ccccc2cc1CSc1ccccc1Nc1nccc(-c2ccc(C(F)(F)F)cc2)n1", "inactive"),
    ("O=C(CSc1nc2sc3c(c2c(=O)n1-c1ccc(Cl)cc1)CCCC3)N/N=C/c1ccc(F)cc1", "inactive"),
    ("NS(=O)(=O)c1cccc(Nc2nc(SCC(=O)c3ccc(Cl)cc3)nc3ccccc23)c1", "inactive"),
    ("Clc1ccc2c(NCCCN3CCOCC3)c3oc4ccc(Cl)cc4c3nc2c1", "inactive"),
    ("Clc1ccc2c(NCCCN3CCOCC3)c3oc4ccccc4c3nc2c1", "inactive"),
    ("OC1CCN(CCCOc2c3ccccc3nc3c2oc2ccc(Cl)cc23)CC1", "active"),
    ("COc1ccc([C@@H]2c3[nH]c4ccccc4c3CC3C(=O)N(C4CCN(Cc5c(F)cccc5F)CC4)CC(=O)N32)c(OC)c1 (some centres undefined)", "inactive"),
    ("CS(=O)(=O)c1ccc(-c2nc3ccccn3c2/C=N/Nc2nc(-c3ccc(Br)cc3)cs2)cc1", "inactive"),
    ("OC1CCN(CCCOc2c3ccccc3nc3c2oc2ccccc23)CC1", "active"),
]

---

The entries below come with measured growth values attached.
Test system: SW-620 colon
Experiment: NCI-60 one-dose screen, 48 h (100 = growth as untreated, 0 = no growth, -100 = all killed)
Details: 10 µM unless noted
The panel holds about 83,000 compounds, 20% with a hit somewhere; the sample as a whole holds those more often.
Quantity Name: growth (%)

# Compound, Quantity Name, Quantitative Result
data = [
    ("Nc1ncc(-c2ccc3ncnc(N4CCc5cc(F)c(Cl)cc54)c3c2)cc1CO", "growth", 11.1),
    ("C=C1CC[C@H]2[C@@](C)(CCC3OC(c4ccc(OCc5cn(C6CC(OC(C)=O)C(OC(C)=O)C(COC(C)=O)O6)nn5)cc4)OC[C@]32C)[C@@H]1/C=C/C1=CCOC1=O (some centres undefined)", "growth", 96.1),
    ("COC(=O)C(Cc1ccccc1)NS(=O)(=O)/N=C1\\NC(=O)NC1=C(Cl)Cl (centres undefined)", "growth", 98.9),
    ("CN1CCN(Cc2ccc(NC(=O)c3cncc(C#Cc4cnc5ccc(N6CCSCC6)nn45)c3)cc2C(F)(F)F)CC1", "growth", -3.56),
    ("COc1ccccc1/C=C/C=N/NC1=NC2C(S1)N(C)C(=O)N2C (centres undefined)", "growth", 20.9),
    ("CN(C)CCCOc1c2ccc(Cl)cc2nc2c1oc1ccccc12", "growth", 9.59),
    ("O=C(c1ccc(Cl)cc1)C1[C@H](c2ccc(Cl)cc2)[C@@H](c2ccccc2)NC12C(=O)Nc1ccc(Br)cc12 (some centres undefined)", "growth", 36.3),
    ("COc1cc(/C=C/C(=O)c2cc(OC)c(OC)c(OC)c2)ccc1OCc1ccc(F)cc1", "growth", 16.9),
    ("Clc1ccc2c(NCCCN3CCOCC3)c3oc4ccc(Cl)cc4c3nc2c1", "growth", 27.5),
]

---

Tested on: A549/ATCC NSCLC
Experiment: NCI-60 one-dose screen, 48 h
Conditions: 10 µM unless noted
This is part of a sample that, as a whole, favours compounds with a hit. Of some 83,000 tested, about 20% had one in any assay. Activity calls are given as the source filed them. How the source made its calls: active means growth percent below 10; inactive means the rest.
Outcome codes: 1 (active), 0 (inactive)

# Compound, Cat
data = [
    ("O=C1Nc2ccccc2Oc2ccc(S(=O)(=O)CC3CO3)cc21 (stereo not given)", 0),
    ("COc1cc(-c2ccc3ncnc(NC(C)c4ccccc4)c3c2)cnc1OC (stereo not given)", 0),
    ("CC(=NNc1ncnc2ccccc12)c1ccc(S(C)(=O)=O)cc1", 0),
    ("CCOc1ccc([C@H]2C(C(=O)c3ccc(Cl)cc3)C3(N[C@@H]2c2ccccc2)C(=O)Nc2ccc(Br)cc23)cc1 (stereo not given in full)", 0),
    ("NC(=O)c1cc(-c2ccc3ncnc(N4CCc5cc(F)c(Cl)cc54)c3c2)cnc1N", 0),
    ("Cc1cc2nc3c4cc(Cl)ccc4n(CC(=O)NCCN(C)C)c3nc2cc1C", 0),
    ("CN(C)S(=O)(=O)c1oc(-c2ccccc2)nc1C#N", 0),
    ("CN1C(=O)N(c2ccccc2)C2N=C(N/N=C/c3ccccc3)SC21 (stereo not given)", 0),
    ("C#Cc1nc(C2=C(C)C(OC(C)=O)/C(=N/OC(C)=O)C2)cs1 (stereo not given)", 0),
    ("O=C(CCN1C(=O)/C(=C/c2ccccc2F)SC1=S)N1CCOCC1", 0),
    ("CCCSc1nc(Nc2ccc(/C(C)=N\\NC(N)=S)cc2)c(C#N)c(-c2ccc(OC)cc2)n1", 0),
    ("NS(=O)(=O)c1ccc(Nc2nc(SCC(=O)c3ccc(Cl)cc3)nc3ccccc23)cc1", 0),
    ("CCOc1ccc2nc(NC(=O)c3ccc(C(F)(F)F)cc3)sc2c1", 0),
    ("COc1cc(-c2nc3ccc(-c4nnc(SCC(=O)Nc5ccc(C(C)=O)cc5)o4)cc3[nH]2)cc(OC)c1OC", 0),
    ("Nc1nc(N)c2c(n1)NC(c1ccc(C(F)(F)F)cc1)CC(c1ccc(Nc3nc(NCCO)nc(Nc4ccc(Cl)cc4)n3)cc1)=N2 (stereo not given)", 1),
    ("Cn1c(SCC(=O)c2cccs2)nc2ccccc2c1=O", 0),
    ("COc1cc2nc(-c3ccc(C)cc3)cc(OCCCNCC3CCCO3)c2cc1OC (stereo not given)", 0),
    ("Nc1ncc(-c2ccc3ncnc(N4CCc5cc(F)c(Cl)cc54)c3c2)cc1CO", 1),
    ("OC1CCN(CCCOc2c3ccc(Cl)cc3nc3c2oc2ccccc23)CC1", 1),
    ("CN(C)CCCNc1c2ccc(Cl)cc2nc2c1oc1ccccc12", 1),
    ("O=C(N/N=C/c1ccc[nH]1)c1[nH]c2ccc(Br)cc2c1-c1ccccc1", 0),
    ("Cc1cccc2sc(/N=C(\\N)C(Br)Br)nc12", 0),
    ("CS(=O)(=O)Nc1ccc(-c2nn(-c3ccc(S(C)(=O)=O)cc3)cc2/C=C/C(=O)c2ccc(NC(=O)CO[N+](=O)[O-])cc2)cc1", 0),
    ("COC(=O)C1CN(S(=O)(=O)/N=C2\\NC(=O)NC2=C(Cl)Cl)C1", 0),
    ("CC(C)(C)Nc1nc2c(OCCc3ccccc3)cccn2c1-c1ccc(Cl)cc1", 0),
    ("CCOC(=O)c1c(Nc2ccccc2)nn2c(N)c(C#N)c(-c3ccc(F)cc3)nc12", 0),
    ("COc1ccc(/C=C/C(=O)c2ccc(NC(=O)CSc3nnc(-c4ccc5nc(-c6ccc(Cl)cc6)[nH]c5c4)o3)cc2)cc1", 0),
    ("COc1ccc(N/N=C/c2c(-c3ccc(S(C)(=O)=O)cc3)nc3ccccn23)cc1", 0),
    ("CCN(CC)c1ccc(C=O)c(OCc2cn(CC(=O)Nc3ccc(Cl)cc3)nn2)c1", 0),
    ("O=c1/c(=C\\c2ccc(-c3ccccc3)o2)sc2nc(-c3ccccc3)nn12", 0),
    ("CC(C)(C)Nc1nc2c(OCCc3ccccc3)cccn2c1-c1ccccc1Cl", 0),
    ("O=C1C2=C(C(=O)c3c(O)cccc31)C(c1ccco1)c1sc(=O)[nH]c1S2 (stereo not given)", 1),
    ("Fc1ccc(-c2cc3nc(C(Cl)Cl)nc(-c4ccccc4)n3n2)cc1", 1),
    ("COc1cc(OC)c(C2SCC(=O)N2Nc2ncnc3ccccc23)cc1OC (stereo not given)", 0),
    ("Cc1sc2nc(NCc3ccccc3Cl)[nH]c(=O)c2c1C", 0),
    ("OC1CCN(CCCOc2c3ccccc3nc3c2oc2ccc(Cl)cc23)CC1", 1),
    ("N#Cc1c(-c2ccc(Cl)cc2)nc(SCc2ccc(F)cc2)nc1N1CCNCC1", 0),
    ("COc1ccc(-c2csc(N/N=C/c3c(-c4ccc(S(C)(=O)=O)cc4)nc4ccccn34)n2)cc1", 0),
    ("N#Cc1ccc(/C=N/NC(=O)c2[nH]c3ccc(Br)cc3c2-c2ccccc2)s1", 0),
    ("Cn1c(SCC(=O)Nc2ccc(-c3nc4ccc([N+](=O)[O-])cc4[nH]3)cc2)nc2ccccc2c1=O", 0),
]
